# System: A498 complex spheroid viability
# ASSAY NAME: Anticancer human tumor A498 cell line growth inhibition
# CONDITION DESCRIPTION: second compound 3.16 µM; first compound 0.316 µM; active compounds read low
A collection of molecules and their measured viability, T/C

Solved entries:
- CC1COCCN1c1cc(C2(S(C)(=N)=O)CC2)nc(-c2ccnc3[nH]ccc23)n1 (stereo not given) + NC1CCC(NC2CC2c2ccccc2)CC1: 69.7%
- O=C(C=Cn1cnc(-c2cc(C(F)(F)F)cc(C(F)(F)F)c2)n1)NNc1cnccn1 + NC1CCC(NC2CC2c2ccccc2)CC1: 21.5%
- CC1(C)CCC(CN2CCN(c3ccc(C(=O)NS(=O)(=O)c4ccc(NCC5CCOCC5)c([N+](=O)[O-])c4)c(Oc4cnc5[nH]ccc5c4)c3)CC2)=C(c2ccc(Cl)cc2)C1 + NC1CCC(NC2CC2c2ccccc2)CC1: 80%
- CC1COCCN1c1cc(-c2ccnn2C)c2ccnc(-c3ccn[nH]3)c2n1 (stereo not given) + NC1CC1c1ccc(-c2cccc(O)c2)cc1: 15.6%

Now look at this one.
Exam item: Look at this molecule and give its reported viability, T/C. Nc1ncn(C2CC(O)C(CO)O2)c(=O)n1 (stereo not given) + NC1CCC(NC2CC2c2ccccc2)CC1
Marked response: 38.1%

----------
# System: A498 complex spheroid viability
# ASSAY NAME: Anticancer human tumor A498 cell line growth inhibition
# CONDITION DESCRIPTION: second compound 0.1 µM; first compound 0.00949 µM; active compounds read low
METRIC NAME: viability, T/C

* CCc1c2c(nc3ccc(O)cc13)-c1cc3c(c(=O)n1C2)COC(=O)[C@]3(O)CC + NC1CC1c1ccc(-c2cccc(O)c2)cc1 | 23.6%
* NS(=O)(=O)OCC1CC(n2ccc3c(NC4CCc5ccccc54)ncnc32)CC1O (centres undefined) + NC1CC1c1ccc(-c2cccc(O)c2)cc1 | 99%
* O=C(C=Cc1cccc(S(=O)(=O)Nc2ccccc2)c1)NO + NC1CC1c1ccc(-c2cccc(O)c2)cc1 | 105%

The record that follows has no viability, T/C shown yet.
Exam item: Which viability, T/C is reported for this molecule? NS(=O)(=O)OCC1CC(n2ccc3c(NC4CCc5ccccc54)ncnc32)CC1O (centres undefined) + NC1CCC(NC2CC2c2ccccc2)CC1
Marked response: 61.1%

----------
# System: A498 complex spheroid viability
# ASSAY NAME: Anticancer human tumor A498 cell line growth inhibition; active = viability on the fitted dose curve at most 10% of control; inactive = the rest;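 also: spheroids exposed to agents for seven days before readout; 100% = DMSO vehicle-treated spheroids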
# CONDITION DESCRIPTION: second compound 3.16 µM; first compound 0.00316 µM
Your reply should match one of these outcome classes. TRUE (active), FALSE (inactive)

Example entries and their recorded answers appear below.
- Cn1ncnc1C1c2n[nH]c(=O)c3cc(F)cc(c23)NC1c1ccc(F)cc1 (centres undefined) + NC1CC1c1ccc(-c2cccc(O)c2)cc1: FALSE
- CC(C)CC(NC(=O)C(Cc1ccccc1)NC(=O)c1cnccn1)B(O)O (centres undefined) + NC1CC1c1ccc(-c2cccc(O)c2)cc1: TRUE
- Nc1ncn(C2CC(O)C(CO)O2)c(=O)n1 (centres undefined) + NC1CCC(NC2CC2c2ccccc2)CC1: FALSE

Next item in the queue.
Exam item: Lab log entry: Cn1ncnc1C1c2n[nH]c(=O)c3cc(F)cc(c23)NC1c1ccc(F)cc1 (centres undefined) + NC1CCC(NC2CC2c2ccccc2)CC1 — outcome as called in the assay?
Marked response: FALSE

----------
# Test system: A498 complex spheroid viability
# ASSAY NAME: Anticancer human tumor A498 cell line growth inhibition;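 also: spheroids exposed to agents for seven days before readout; 100% = DMSO vehicle-treated spheroids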
# CONDITION DESCRIPTION: second compound 10 µM; first compound 0.03 µM; active compounds read low
Item-by-item account of viability, T/C
Response body: numeric value in %, unit text excluded.

Below, 6 compounds whose answers are already recorded.
- CCN(c1cc(-c2ccc(CN3CCOCC3)cc2)cc(C(=O)NCc2c(C)cc(C)[nH]c2=O)c1C)C1CCOCC1 + NC1CC1c1ccc(-c2cccc(O)c2)cc1: 97.2
- CCc1c2c(nc3ccc(O)cc13)-c1cc3c(c(=O)n1C2)COC(=O)[C@]3(O)CC + NC1CCC(NC2CC2c2ccccc2)CC1: 4.35
- Nc1ncn(C2CC(O)C(CO)S2)c(=O)n1 (stereo unspecified) + NC1CC1c1ccc(-c2cccc(O)c2)cc1: 105
- Nc1ccn(C2OC(CO)C(O)C2(F)F)c(=O)n1 (stereo unspecified) + NC1CCC(NC2CC2c2ccccc2)CC1: 38.5
- NS(=O)(=O)OCC1CC(n2ccc3c(NC4CCc5ccccc54)ncnc32)CC1O (stereo unspecified) + NC1CCC(NC2CC2c2ccccc2)CC1: 8.27
- NS(=O)(=O)OCC1CC(n2ccc3c(NC4CCc5ccccc54)ncnc32)CC1O (stereo unspecified) + NC1CC1c1ccc(-c2cccc(O)c2)cc1: 53.2

Exam item: Tell me the measured viability, T/C of CCN(c1cc(-c2ccc(CN3CCOCC3)cc2)cc(C(=O)NCc2c(C)cc(C)[nH]c2=O)c1C)C1CCOCC1 + NC1CCC(NC2CC2c2ccccc2)CC1 , please.
Marked response: 87.5

Exam item: May I ask what viability, T/C has been recorded for Nc1ccccc1NC(=O)c1ccc(CNC(=O)OCc2cccnc2)cc1 + NC1CCC(NC2CC2c2ccccc2)CC1 ?
Marked response: 59.3

Exam item: # lookup: viability, T/C of CCc1c2c(nc3ccc(O)cc13)-c1cc3c(c(=O)n1C2)COC(=O)[C@]3(O)CC + NC1CC1c1ccc(-c2cccc(O)c2)cc1
Marked response: 0.83

Exam item: viability, T/C lookup needed for COc1cc(C2c3cc4c(cc3C(OC3OC5COC(C)OC5C(O)C3O)C3COC(=O)C23)OCO4)cc(OC)c1O (stereo unspecified) + NC1CCC(NC2CC2c2ccccc2)CC1 , thanks.
Marked response: 66.8

Exam item: // returns reported viability, T/C for input COc1cc(C2c3cc4c(cc3C(OC3OC5COC(C)OC5C(O)C3O)C3COC(=O)C23)OCO4)cc(OC)c1O (stereo unspecified) + NC1CC1c1ccc(-c2cccc(O)c2)cc1
Marked response: 61.1

Exam item: Reported viability, T/C for O=C(C=Cc1cccc(S(=O)(=O)Nc2ccccc2)c1)NO + NC1CC1c1ccc(-c2cccc(O)c2)cc1 : what is it?
Marked response: 81.3

Exam item: Need viability, T/C of Nc1ncn(C2CC(O)C(CO)S2)c(=O)n1 (stereo unspecified) + NC1CCC(NC2CC2c2ccccc2)CC1 , thanks.
Marked response: 67.2

Exam item: Returns the measured viability, T/C for the input compound. Input: Nc1ccn(C2OC(CO)C(O)C2(F)F)c(=O)n1 (stereo unspecified) + NC1CC1c1ccc(-c2cccc(O)c2)cc1
Marked response: 40.7

Exam item: Fill in: viability, T/C of O=C(C=Cc1cccc(S(=O)(=O)Nc2ccccc2)c1)NO + NC1CCC(NC2CC2c2ccccc2)CC1 is ___
Marked response: 64.6

Exam item: Look up viability, T/C: Nc1ccccc1NC(=O)c1ccc(CNC(=O)OCc2cccnc2)cc1 + NC1CC1c1ccc(-c2cccc(O)c2)cc1
Marked response: 78.6

----------
# Tested on: A498 complex spheroid viability
# ASSAY NAME: Anticancer human tumor A498 cell line growth inhibition; active means viability on the fitted dose curve at most 10% of control; inactive means the rest;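 also: spheroids exposed to agents for seven days before readout; 100% = DMSO vehicle-treated spheroids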
# CONDITION DESCRIPTION: second compound 3.16 µM; first compound 0.00316 µM
# From the text: Multicellular complex tumor spheroid response to LSD1 Inhibitor Iadademstat in combination with a variety of drugs and investigational agents in selected tumor cell lines The current study was undertaken to assess response to LSD1 inhibitors in combination with standard-of-care drugs and investigational agents in solid tumor complex spheroid models as well as in the K-562 leukemia. […] Compounds. […] If the clinical Cmax for an agent had not been determined, the highest concentration tested was 10 microM. […]
Returns: one label drawn from active, inactive

Past entries and their recorded results:
* O=C(C=Cn1cnc(-c2cc(C(F)(F)F)cc(C(F)(F)F)c2)n1)NNc1cnccn1 + NC1CCC(NC2CC2c2ccccc2)CC1 | inactive
* CC[C@@]1(O)C(=O)OCc2c1cc1n(c2=O)Cc2cc3c(CN(C)C)c(O)ccc3nc2-1 + NC1CCC(NC2CC2c2ccccc2)CC1 | inactive

Exam item: Call for entry CC(C)CC(NC(=O)C(Cc1ccccc1)NC(=O)c1cnccn1)B(O)O (stereo not drawn) + NC1CCC(NC2CC2c2ccccc2)CC1 :
Marked response: active

----------
# Test system: A498 complex spheroid viability
# ASSAY NAME: Anticancer human tumor A498 cell line growth inhibition; active means viability on the fitted dose curve at most 10% of control; inactive means the rest;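 also: spheroids exposed to agents for seven days before readout; 100% = DMSO vehicle-treated spheroids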
# CONDITION DESCRIPTION: second compound 0.316 µM; first compound 0.0949 µM
# Text: Multicellular complex tumor spheroid response to LSD1 Inhibitor Iadademstat in combination with a variety of drugs and investigational agents in selected tumor cell lines The current study was undertaken to assess response to LSD1 inhibitors in combination with standard-of-care drugs and investigational agents in solid tumor complex spheroid models as well as in the K-562 leukemia. […] Compounds. […] If the clinical Cmax for an agent had not been determined, the highest concentration tested was 10 microM. […]
Lab note: assign the record to one of 1 = active, 0 = inactive

- Nc1ncn(C2CC(O)C(CO)S2)c(=O)n1 (stereo not drawn) + NC1CCC(NC2CC2c2ccccc2)CC1: 0
- Nc1ccccc1NC(=O)c1ccc(CNC(=O)OCc2cccnc2)cc1 + NC1CCC(NC2CC2c2ccccc2)CC1: 0
- CCN(c1cc(-c2ccc(CN3CCOCC3)cc2)cc(C(=O)NCc2c(C)cc(C)[nH]c2=O)c1C)C1CCOCC1 + NC1CC1c1ccc(-c2cccc(O)c2)cc1: 0
- COc1cc(C2c3cc4c(cc3C(OC3OC5COC(C)OC5C(O)C3O)C3COC(=O)C23)OCO4)cc(OC)c1O (stereo not drawn) + NC1CCC(NC2CC2c2ccccc2)CC1: 0
- Nc1ccn(C2OC(CO)C(O)C2(F)F)c(=O)n1 (stereo not drawn) + NC1CC1c1ccc(-c2cccc(O)c2)cc1: 0
- COc1cc(C2c3cc4c(cc3C(OC3OC5COC(C)OC5C(O)C3O)C3COC(=O)C23)OCO4)cc(OC)c1O (stereo not drawn) + NC1CC1c1ccc(-c2cccc(O)c2)cc1: 0
- Nc1ncn(C2CC(O)C(CO)S2)c(=O)n1 (stereo not drawn) + NC1CC1c1ccc(-c2cccc(O)c2)cc1: 0
- NS(=O)(=O)OCC1CC(n2ccc3c(NC4CCc5ccccc54)ncnc32)CC1O (stereo not drawn) + NC1CCC(NC2CC2c2ccccc2)CC1: 0
- O=C(C=Cc1cccc(S(=O)(=O)Nc2ccccc2)c1)NO + NC1CCC(NC2CC2c2ccccc2)CC1: 0
- CCc1c2c(nc3ccc(O)cc13)-c1cc3c(c(=O)n1C2)COC(=O)[C@]3(O)CC + NC1CCC(NC2CC2c2ccccc2)CC1: 1

Exam item: Test call, this molecule: O=C(C=Cc1cccc(S(=O)(=O)Nc2ccccc2)c1)NO + NC1CC1c1ccc(-c2cccc(O)c2)cc1
Marked response: 0

Exam item: Recorded test outcome, item NS(=O)(=O)OCC1CC(n2ccc3c(NC4CCc5ccccc54)ncnc32)CC1O (stereo not drawn) + NC1CC1c1ccc(-c2cccc(O)c2)cc1
Marked response: 0

Exam item: What did the test return for Nc1ccccc1NC(=O)c1ccc(CNC(=O)OCc2cccnc2)cc1 + NC1CC1c1ccc(-c2cccc(O)c2)cc1 ?
Marked response: 0
